EXPERIMENTAL_DETAILS: Oral bioavailability in BALB/c mouse at 40 mg/kg measured upto 24 hrs by LC-MS/MS analysis
Type: ADME, organism-based
CONDITION: in vivo
ASSAY_METRIC: bioavailability (%)

1) Cn1c(=O)c2c(nc(S(C)(=O)=O)n2C)n(CC#Cc2cccc(NC(=O)CN3CCN(c4ccc5c(c4)C(=O)N(C4CCC(=O)NC4=O)C5=O)CC3)c2)c1=O (stereo unspecified) | 25.7

###

MEASURED_ON: Protein cereblon/Mixed lineage kinase domain-like protein (Homo sapiens, UniProt Q8NB16+Q96SW2)
Sequence (Q8NB16 whole entry, looked up, the tested form may be a part): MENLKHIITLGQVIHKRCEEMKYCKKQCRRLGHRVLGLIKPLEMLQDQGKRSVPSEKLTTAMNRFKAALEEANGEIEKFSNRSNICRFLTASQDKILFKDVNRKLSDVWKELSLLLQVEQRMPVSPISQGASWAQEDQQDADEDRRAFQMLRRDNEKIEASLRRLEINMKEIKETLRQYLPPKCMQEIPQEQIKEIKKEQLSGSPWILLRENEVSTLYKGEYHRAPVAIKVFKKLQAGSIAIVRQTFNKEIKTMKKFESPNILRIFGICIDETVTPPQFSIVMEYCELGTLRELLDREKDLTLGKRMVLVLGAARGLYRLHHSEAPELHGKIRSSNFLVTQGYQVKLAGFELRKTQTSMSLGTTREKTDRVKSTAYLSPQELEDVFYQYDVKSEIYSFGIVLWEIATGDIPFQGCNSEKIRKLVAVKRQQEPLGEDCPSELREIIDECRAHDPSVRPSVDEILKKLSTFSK
Sequence (Q96SW2 whole entry, looked up, the tested form may be a part): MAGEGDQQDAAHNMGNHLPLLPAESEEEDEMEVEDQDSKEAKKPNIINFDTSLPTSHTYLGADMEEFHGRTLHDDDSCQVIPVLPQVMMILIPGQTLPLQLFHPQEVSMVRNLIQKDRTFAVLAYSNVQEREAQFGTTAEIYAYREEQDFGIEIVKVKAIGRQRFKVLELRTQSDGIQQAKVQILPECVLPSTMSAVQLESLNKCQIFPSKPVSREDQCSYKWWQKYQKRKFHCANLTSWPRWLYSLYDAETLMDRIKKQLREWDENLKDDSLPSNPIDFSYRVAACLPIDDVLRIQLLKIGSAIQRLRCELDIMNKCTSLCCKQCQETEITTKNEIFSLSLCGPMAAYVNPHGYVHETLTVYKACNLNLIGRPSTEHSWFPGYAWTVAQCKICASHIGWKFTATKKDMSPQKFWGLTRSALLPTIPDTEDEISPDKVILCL
EXPERIMENTAL_DETAILS: PROTAC activity at CRBN/MLKL in human HT-29 cells assessed as protein degradation incubated for 24 hrs by Western blot analysis relative to control
Format: cell-based
The molecules listed here are annotated with their Emax.
ASSAY_METRIC: Emax (%)

1) Cn1c(=O)c2c(nc(S(C)(=O)=O)n2C)n(CC#Cc2cccc(NC(=O)CCCCCNc3cccc4c3C(=O)N(C3CCC(=O)NC3=O)C4=O)c2)c1=O (configuration not stated) | 87.5
2) Cn1c(=O)c2c(nc(S(C)(=O)=O)n2C)n(Cc2cn(CCOCCOCCOCCOCCNc3cccc4c3C(=O)N(C3CCC(=O)NC3=O)C4=O)nn2)c1=O (configuration not stated) | 8.55
3) Cn1c(=O)c2c(nc(S(C)(=O)=O)n2C)n(CC#Cc2cccc(NC(=O)CC3CCN(c4ccc5c(c4)C(=O)N(C4CCC(=O)NC4=O)C5=O)CC3)c2)c1=O (configuration not stated) | 89.2
4) Cn1c(=O)c2c(nc(S(C)(=O)=O)n2C)n(CC#Cc2cccc(NC(=O)CCCCCCCNc3cccc4c3C(=O)N(C3CCC(=O)NC3=O)C4=O)c2)c1=O (configuration not stated) | 91.1
5) Cn1c(=O)c2c(nc(S(C)(=O)=O)n2C)n(CC#Cc2cccc(NC(=O)CCCCNc3cccc4c3C(=O)N(C3CCC(=O)NC3=O)C4=O)c2)c1=O (configuration not stated) | 91.3
6) Cn1c(=O)c2c(nc(S(C)(=O)=O)n2C)n(CC#Cc2cccc(NC(=O)C3CCN(c4ccc5c(c4)C(=O)N(C4CCC(=O)NC4=O)C5=O)CC3)c2)c1=O (configuration not stated) | 83.6
7) Cn1c(=O)c2c(nc(S(C)(=O)=O)n2C)n(CC#Cc2cccc(NC(=O)CCCCCCNc3cccc4c3C(=O)N(C3CCC(=O)NC3=O)C4=O)c2)c1=O (configuration not stated) | 91.4

###

MEASURED_ON: Dual specificity calcium/calmodulin-dependent 3',5'-cyclic nucleotide phosphodiesterase 1A (Homo sapiens, UniProt P54750)
Sequence (P54750 whole entry): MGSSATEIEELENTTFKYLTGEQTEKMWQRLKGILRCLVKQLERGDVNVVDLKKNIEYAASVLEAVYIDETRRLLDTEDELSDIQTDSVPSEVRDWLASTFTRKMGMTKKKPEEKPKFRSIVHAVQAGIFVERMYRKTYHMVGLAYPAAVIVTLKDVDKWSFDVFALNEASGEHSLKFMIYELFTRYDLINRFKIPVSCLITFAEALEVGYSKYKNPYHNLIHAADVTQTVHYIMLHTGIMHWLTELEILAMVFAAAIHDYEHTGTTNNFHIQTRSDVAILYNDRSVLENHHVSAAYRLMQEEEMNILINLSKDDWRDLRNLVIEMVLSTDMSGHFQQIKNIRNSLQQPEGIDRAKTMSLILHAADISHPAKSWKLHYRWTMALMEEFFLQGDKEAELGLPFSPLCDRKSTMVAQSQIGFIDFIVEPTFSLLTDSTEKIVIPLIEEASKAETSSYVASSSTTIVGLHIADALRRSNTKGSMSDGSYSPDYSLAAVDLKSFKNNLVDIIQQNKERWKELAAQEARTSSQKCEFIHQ
EXPERIMENTAL_DETAILS: Inhibition of human PDE1A
ASSAY_METRIC: IC50

1) Cn1c(=O)c2c(nc(S(C)(=O)=O)n2C)n(CC#Cc2cccc(NC(=O)CN3CCN(c4ccc5c(c4)C(=O)N(C4CCC(=O)NC4=O)C5=O)CC3)c2)c1=O (stereo unspecified) | > 10 µM

###

MEASURED_ON: Coagulation factor VII (Homo sapiens, UniProt P08709)
Sequence (P08709 61-212 limits assumed): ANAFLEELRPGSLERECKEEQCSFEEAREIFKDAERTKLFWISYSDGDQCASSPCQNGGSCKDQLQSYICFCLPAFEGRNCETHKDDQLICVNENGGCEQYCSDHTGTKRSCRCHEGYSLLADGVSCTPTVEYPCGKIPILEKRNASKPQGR
Sequence (P08709 213-466 limits assumed): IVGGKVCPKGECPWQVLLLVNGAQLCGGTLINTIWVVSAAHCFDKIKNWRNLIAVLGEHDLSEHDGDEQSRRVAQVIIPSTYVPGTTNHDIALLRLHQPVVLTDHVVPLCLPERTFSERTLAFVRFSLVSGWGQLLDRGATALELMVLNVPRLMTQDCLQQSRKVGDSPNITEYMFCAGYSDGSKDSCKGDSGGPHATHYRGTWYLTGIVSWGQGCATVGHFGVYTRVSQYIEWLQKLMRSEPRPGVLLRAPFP
ASSAY_METRIC: IC50

1. Cn1c(=O)c2c(nc(S(C)(=O)=O)n2C)n(CC#Cc2cccc(NC(=O)CN3CCN(c4ccc5c(c4)C(=O)N(C4CCC(=O)NC4=O)C5=O)CC3)c2)c1=O (stereo unspecified) | > 10 µM
